Would you mind telling me the reported melting point of each entry?
Give bare numbers, in °C.

O=C1c2ccccc2C(=O)N1CCOCCO: 64
CCc1cccc2ccccc12: -13.9
COC(=O)C1CCCc2c1[nH]c1ccc(OC)cc21 (stereo not given): 92
C=CN1C(=O)c2ccccc2C1=O: 86
Nc1ccc(S(=O)(=O)F)cc1: 68.5
COc1ccc(C(=O)c2cc(OC)c(OC)cc2[N+](=O)[O-])cc1: 147
O=S(=O)(Cl)c1ccc(-c2cnco2)cc1: 101
ClC(=C(Cl)c1ccccc1)c1ccccc1: 144
CCOC(=O)C(C)C(O)(c1ccccc1)c1ccccc1 (stereo not given): 102

Now consider a different compound.
Task: Could you please provide reported melting point for CCOC(=O)CCC(N[P+]([O-])(OC)C(C)NC(=O)CCCCN1C(=O)c2ccccc2C1=O)C(=O)OCC (stereo not given) ? Thanks!
Result: 81
